The molecules listed here are annotated with their Dmax.
Molecular target: MK2 (Homo sapiens)
Sequence (P49137 whole entry): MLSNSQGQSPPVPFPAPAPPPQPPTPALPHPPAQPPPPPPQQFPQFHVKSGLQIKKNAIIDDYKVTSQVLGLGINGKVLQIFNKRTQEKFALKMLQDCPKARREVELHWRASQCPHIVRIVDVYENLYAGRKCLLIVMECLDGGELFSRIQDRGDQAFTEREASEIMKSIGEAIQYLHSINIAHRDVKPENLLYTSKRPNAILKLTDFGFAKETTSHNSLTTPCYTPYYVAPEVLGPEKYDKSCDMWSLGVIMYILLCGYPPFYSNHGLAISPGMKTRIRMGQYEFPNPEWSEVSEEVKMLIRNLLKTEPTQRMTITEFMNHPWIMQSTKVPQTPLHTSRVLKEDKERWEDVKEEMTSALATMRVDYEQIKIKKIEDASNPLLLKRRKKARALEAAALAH
Test: MK2 degradation in human THP-1 monocytic cells (MSD, 24 h)
Format: cell-based
Parameters: endogenous in cells
Conditions: THP-1, THP-1 cells

Reference set, count: 2
[[record]]
molecule = "C[C@@H]1Cc2[nH]c(-c3ccnc(-c4ccc(N5CCN(CC6CCN(c7cccc8c7n(C)c(=O)n8C7CCC(=O)NC7=O)CC6)CC5)cc4)c3)cc2C(=O)N1 (stereo partly drawn)"
reportedmetric = "Dmax"
reading = "> 75%"

[[record]]
molecule = "C[C@@H]1CNc2c(sc3ccc4nc(-c5ccc([C@H]6CC[C@H](CN7CCN(c8ccc9c(c8)n(C)c(=O)n9C8CCC(=O)NC8=O)CC7)CC6)nc5)ccc4c23)C(=O)N1 (stereo partly drawn)"
reportedmetric = "Dmax"
reading = "> 75%"


QUERY: Suppose we examine the molecule C[C@@H]1CNc2c(sc3ccc4nc(-c5ccc(CNC(=O)COCCOCCOCCOCCc6cccc7c6n(C)c(=O)n7C6CCC(=O)NC6=O)cc5)ccc4c23)C(=O)N1 (stereo partly drawn) ; what Dmax value has been reported?
RESULT: > 75%
